Data credit: patent US8722622B2

assay-notes: Stability of linkers L1-L4 conjugated to FGF21 (LC-MS)
Type: physicochemical
stated-conditions: +4° C., 168 hrs
Exercise: state measured +(1) H2O for each of the molecules provided.
I'd appreciate it if you included the unit after the number.

Data point: L1-FGF21ΔH-A129C: Linker-1 conjugated to FGF21ΔH-A129C protein (Table 4; Table 5 row L1) (conjugate, UniProt Q9NSA1 29-209, looked up, variant H1* A129C, Linker-1 attached) Fibroblast growth factor 21: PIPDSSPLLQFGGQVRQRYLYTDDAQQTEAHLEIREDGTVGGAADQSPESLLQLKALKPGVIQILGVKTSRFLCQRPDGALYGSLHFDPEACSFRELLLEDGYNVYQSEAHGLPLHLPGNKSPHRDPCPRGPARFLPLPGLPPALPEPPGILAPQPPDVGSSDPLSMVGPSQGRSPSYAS ; +(1) H2O = 40%

Data point: L3-FGF21ΔH-A129C: Linker-3 conjugated to FGF21ΔH-A129C protein (Table 4; Table 5 row L3) (conjugate, UniProt Q9NSA1 29-209, looked up, variant H1* A129C, Linker-3 attached) Fibroblast growth factor 21: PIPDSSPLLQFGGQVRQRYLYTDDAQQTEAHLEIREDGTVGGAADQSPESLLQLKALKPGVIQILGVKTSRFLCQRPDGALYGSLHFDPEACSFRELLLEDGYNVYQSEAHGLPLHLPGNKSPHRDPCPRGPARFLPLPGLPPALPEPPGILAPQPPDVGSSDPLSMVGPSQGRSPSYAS ; +(1) H2O = 29%

Data point: L2-FGF21ΔH-A129C: Linker-2 conjugated to FGF21ΔH-A129C protein (Table 4; Table 5 row L2) (conjugate, UniProt Q9NSA1 29-209, looked up, variant H1* A129C, Linker-2 attached) Fibroblast growth factor 21: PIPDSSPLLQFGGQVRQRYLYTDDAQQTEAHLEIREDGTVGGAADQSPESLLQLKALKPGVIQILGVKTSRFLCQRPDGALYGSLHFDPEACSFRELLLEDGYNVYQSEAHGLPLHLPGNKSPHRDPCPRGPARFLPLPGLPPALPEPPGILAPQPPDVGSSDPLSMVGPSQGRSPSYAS ; +(1) H2O = 29%

Data point: L4-FGF21ΔH-A129C: Linker-4 conjugated to FGF21ΔH-A129C protein (Table 4; Table 5 row L4) (conjugate, UniProt Q9NSA1 29-209, looked up, variant H1* A129C, Linker-4 attached) Fibroblast growth factor 21: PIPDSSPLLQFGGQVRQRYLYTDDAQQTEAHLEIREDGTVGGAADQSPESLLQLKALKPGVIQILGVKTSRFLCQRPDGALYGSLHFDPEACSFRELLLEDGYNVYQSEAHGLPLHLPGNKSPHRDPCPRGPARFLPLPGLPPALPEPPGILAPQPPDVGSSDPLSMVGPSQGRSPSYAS ; +(1) H2O = 32%
